// data source = patent US20020143062A1

- Test system: MCF-7/WT
- EXPERIMENTAL PROTOCOL: Cellular proliferation assay, IC50 of retinoids with/without cyclosporin A
- Format: cell-based
- CONDITION SET: Homo sapiens, MCF7, cotreatment with CsA 2 μg/ml, read-out: IC50 With CsA
PROPERTY MEASURED: IC50 (nM)
Lab book: enter the figure in nM, no units written.

Summary for this compound, CC1=C(/C=C/C(C)=C/C=C/C(C)=C/C(=O)Nc2ccc(O)cc2)C(C)(C)CCC1 [4-HPR, N-(4-hydroxyphenyl) retinamide] : IC50 is 1210

----------
- Tested on: MCF-7/WT
- EXPERIMENTAL PROTOCOL: Cellular proliferation assay, IC50 of retinoids with/without cyclosporin A
- Assay type: cell-based
- CONDITION SET: Homo sapiens, MCF7, cotreatment with CsA, concentration not marked, read-out: IC50 With CsA
PROPERTY MEASURED: pIC50
Remember, pIC50 is on a log scale: it is -log10 of the molar concentration.

Looking up CC1=C(/C=C/C(C)=C/C=C/C(C)=C/C(=O)O)C(C)(C)CCC1 [ATRA, all-trans-retinoic acid] , I see its pIC50 listed as 6.54
